Test: NCI Yeast Anticancer Drug Screen. Data for the mec2-1 strain (AID 157)
Conditions: S. cerevisiae mec2-1 strain, at 50.0 µM, active compounds read high
Compounds without any hit were thinned out: in the full panel of roughly 79,000, 15% have a hit.
Measured growth inhibition of individual entries
Value expressed in %; do not type the unit.

Some entries whose results are on file:
INSERT INTO assay_data (molecule, measured_attribute, unit_of_measurement, obs_value) VALUES
  ('O.O.[NH-]C1(C(=O)O)CCCC1.[NH-]C1(C(=O)O)CCCC1.[Ni+2]', 'growth inhibition', '%', -15.9),
  ('COc1ccc(-c2nc(-c3ccc(N=Cc4ccc(N(CCCl)CCCl)cc4)cc3)cs2)cc1', 'growth inhibition', '%', 11.4),
  ('[CH3][Sb]([CH3])[S]C1OC(CO)C(O)C(O)C1O (configuration not stated)', 'growth inhibition', '%', 0.9),
  ('CN1CCN(c2nc(N)c(Br)c(Cl)n2)CC1', 'growth inhibition', '%', 3.65),
  ('COC(CN1CCOCCOCCOCC1)CN1CCOCCOCCOCC1', 'growth inhibition', '%', -6.55),
  ('CN(C)c1ncnc2c1ncn2C1OC(CO)C2NP(=O)(N(CCCl)CCCl)OC21 (configuration not stated)', 'growth inhibition', '%', -1.35),
  ('NNC(=S)NN', 'growth inhibition', '%', 4.3),
  ('NC(Cc1ccccc1)c1nccs1 (configuration not stated)', 'growth inhibition', '%', -26.6);

Reported growth inhibition of `C[C@@H]1C[C@H]2CC[C@H](O2)[C@H](C)C(=O)O[C@@H](C)C[C@@H]2CC[C@@H](O2)[C@@H](C)C(=O)O[C@H](C)C[C@H]2CC[C@H](O2)[C@H](C)C(=O)O[C@@H](C)C[C@@H]2CC[C@@H](O2)[C@@H](C)C(=O)O1` : 88

Looking up `C/C=C/COC(=O)CO[N+](=O)[O-]` , I found its growth inhibition recorded as -4.25

# growth inhibition (molecule: COc1cc(CC(N)Cc2c[nH]c3ccccc23)cc(OC)c1OC (configuration not stated) ) is -5.8

Sure, the documented growth inhibition for `COc1ccc2n[se]nc2c1` is 28.1

Form field growth inhibition, entry `COP(=O)(NC12CC3CC(CC(C3)C1)C2)OC` : 5.45

###

Assay: NCI Yeast Anticancer Drug Screen. Data for the mec2-1 strain (AID 157)
Conditions: S. cerevisiae mec2-1 strain, at 50.0 µM
About 79,000 compounds went through this panel and 15% of them were active in at least one assay; those are over-represented in the sample as a whole. Calls of active or inactive are those of the source. Cut-off read from the data, not from the text of the source: active = growth inhibition above about 70%; inactive = the rest.
Entry note: the call must match one of true (active), false (inactive)

INSERT INTO results (compound, qualitative_label) VALUES
  ('CC(=O)OC[C@]12C[C@H](OC(=O)CC(C)C)C(C)=C[C@H]1OC1[C@H](O)[C@@H](OC(C)=O)[C@@]2(C)[C@@]12CO2', 'true'),
  ('CC(C)[C@]12O[C@H]1[C@@H]1O[C@]13[C@]1(O[C@H]1C[C@H]1C4=C(CC[C@@]13C)C(=O)OC4)[C@@H]2O', 'false'),
  ('CN(c1ccccc1)[N+](=O)[O-]', 'false'),
  ('O=C1NC(=O)C(F)C(O)N1 (stereo not given)', 'false'),
  ('[Cl][Pt][Cl].c1ccc([AsH](CC[AsH](c2ccccc2)c2ccccc2)c2ccccc2)cc1', 'true');

State the result this test recorded for C[C@]12CC[C@H](OC3OC(CO)C(O)C(O)C3O)C[C@H]1CC[C@@H]1[C@@H]2CC[C@]2(C)[C@@H](C3=CCOC3=O)CC[C@]12O (stereo not given in full) .
false

Fill in: this test's call for `Nc1ccc([N+](=O)[O-])cc1Cl` is ___
false
